Listing of recorded Percent Effect by entry.
test system: Wolbachia pipientis; assay: Anti-Wolbachia Cell-Based Screen; assay type: functional; design: scale not given: in the data most compounds retested in dose-response had high values; conditions: 5 µM
In all, about 48,000 compounds went through this assay and about 13,000 (27%) showed an effect of 50% or more. The list shows a part of the results.
Please give a number only; it is taken to be in %.

Example molecules with recorded Percent Effect:
molecule: Cc1nc(C2CCN(C)CC2)cc(N2CCOc3ccc(Cl)cc3C2)n1
units-label: %
Percent Effect: -7.272

molecule: Cc1nn(C)c(C)c1NC(=O)CNC(c1ccc(F)cc1)C1CCC1 (stereo unspecified)
units-label: %
Percent Effect: 19.96

molecule: COc1c(C2CCCN2c2ncnc3sccc23)c(C)nn1C (stereo unspecified)
units-label: %
Percent Effect: -10.8

molecule: CCc1nc(C)ncc1C(=O)N1CC(=O)N(C)c2ccccc21
units-label: %
Percent Effect: -0.2346

molecule: Cc1cc(C)cc(C(=O)NCCCNc2ncccn2)c1
units-label: %
Percent Effect: -23.32

Lab note: next molecule to report on.
Report Percent Effect for CCNC(=O)[C@@H]1C[C@@H](N)CN1Cc1ccc(-c2ccccc2C#N)o1 tested on Wolbachia pipientis.
-0.5053

---

Listing of recorded Percent Effect by entry.
tested on: Wolbachia pipientis; test: Anti-Wolbachia Cell-Based Screen; assay type: functional; design: scale not given: in the data most compounds retested in dose-response had high values; conditions: 5 µM
Out of some 48,000 compounds screened, about 13,000 (27%) showed an effect of 50% or more. Some of the results follow.
Please give a number only; it is taken to be in %.

Example compounds with recorded Percent Effect:
compound: CCSc1ncc(CN2C[C@H]3CC[C@@H]2CN(C2CCOCC2)C3)cn1
subject-of-test: Wolbachia pipientis
measurement-kind: Percent Effect
value-reported: 15.93

compound: Cc1ccsc1CNc1cc(N2CCCC2CO)ncn1 (stereo unspecified)
subject-of-test: Wolbachia pipientis
measurement-kind: Percent Effect
value-reported: 12.33

Report Percent Effect for CC(=O)N1CC[C@H]2CC(=O)N(C3CC3)CC[C@H]2C1 tested on Wolbachia pipientis.
-2.772

---

test system: Wolbachia pipientis; assay: Anti-Wolbachia Cell-Based Screen; assay type: functional; set-up: scale not given: in the data most compounds retested in dose-response had high values; conditions: 5 µM
The whole screen tested about 48,000 compounds, of which about 13,000 (27%) showed an effect of 50% or more. Some of the results follow.
measurement-kind: Percent Effect (%)
Please give a number only; it is taken to be in %.

Recorded Percent Effect for CCN(C(=O)c1cc(C)nc2ccccc12)C1CC(=O)NC1=O (stereo unspecified) , please?
9.266

Recorded Percent Effect for CN(CC1(C)COC1)C(=O)c1cc(-c2cnn(C)c2)nc2ccccc12 , please?
150.1

Recorded Percent Effect for O=C(c1ccccn1)N1C[C@@H]2OCC(=O)N(CC3CCCCC3)[C@@H]2C1 , please?
1.178

---

Listing of recorded Percent Effect by entry.
test system: Wolbachia pipientis; assay: Anti-Wolbachia Cell-Based Screen; assay type: functional; set-up: scale not given: in the data most compounds retested in dose-response had high values; details: 5 µM
About 13,000 (27%) of roughly 48,000 compounds showed an effect of 50% or more. Some of the results follow.
Please give a number only; it is taken to be in %.

Example molecules with recorded Percent Effect:
molecule: Cc1n[nH]c(C)c1CCC(=O)NCC1CCOc2ccccc2C1 (stereo not drawn)
subject-of-test: Wolbachia pipientis
units-label: %
Percent Effect: -7.064
//
molecule: Cc1cc(CN2CCC(CNC(=O)CN3CCCCCC3)C2)[nH]n1 (stereo not drawn)
subject-of-test: Wolbachia pipientis
units-label: %
Percent Effect: 4.399
//
molecule: COc1ccc(C(NC(=O)c2cccc[n+]2[O-])C2CC2)cc1 (stereo not drawn)
subject-of-test: Wolbachia pipientis
units-label: %
Percent Effect: 3.052

Recorded Percent Effect for COc1c(F)cc(NC(=O)N2CCC(CSC)C2)cc1F (stereo not drawn) , please?
-4.081

Recorded Percent Effect for COC(=O)C1(NCc2nc(C)c(C)o2)CCC(C)CC1 (stereo not drawn) , please?
-8.144

Recorded Percent Effect for COc1ccc(Oc2ccc(C(F)(F)F)cn2)cc1CN1CCCC1 , please?
-1.522

Recorded Percent Effect for Cc1n[nH]c(C)c1NC(=O)CN1CCCC(CNC(=O)C(C)(C)C)C1 (stereo not drawn) , please?
3.245

Recorded Percent Effect for CCNC(=O)N(C)C1CCCc2nc(C)sc21 (stereo not drawn) , please?
9.089

Recorded Percent Effect for O=C(C(NCc1cccc(F)c1F)c1ccccc1)N1CCOCC1 (stereo not drawn) , please?
-0.9973

Recorded Percent Effect for CCc1cc(NC(C)(C)C)nc(N2CCOCC2)n1 , please?
-8.862

Recorded Percent Effect for CCc1nc(NCC(=O)N2CCOCC2)c2c(n1)c(C)nn2CC , please?
7.048
